Parameter Median:FITC-A: see the listing below.
- TARGET OR TEST SYSTEM: T1, R3 (RHAMM-R3) peptide/HLA-A*02:01 complex on T2 cells (human)
- T1 construct: Control target of the phage staining of T2 cells; also called T2 cells pulsed with R3 peptide; RHAMM 3 (R3)
- PROTOCOL: flow cytometry, phage on T2 + R3 peptide; secondary only 123, unstained 99.8
MEASUREMENT TYPE: Median:FITC-A

INSERT INTO results (binder, measurement_type, measurement) VALUES
  ('EXT017-26 scFv phage clone (scFv, also called phage clone #26) scFv: SYVLTQPPSVSVAPGQTARITCGGTDIRRKTVHWYQQKPGLAPVLVLYDDSDRPSGIPERFSGSNSGNTATLTISRVEGGDEADYYCQVWDNDNDHYVFGPGTKVTVLGSRGGGGSGGGGSGGGGSLEMAEVQLVQSGAEVKKPGASVKVSCKASGYTFTNYYIHWVRQTPGEGLEWMGIIRPSGGNTNYAQKFQGRVTMTRDTSTRTVYMELSSLRSEDTAVYYCARSWDTFSDEWGQGTLVTVSSTSGQAGQHHHHHHGAYPYDVPDYAS', 'Median:FITC-A', 144),
  ('EXT017-27 scFv phage clone (scFv, full-length scFv with His+HA tags; also called EXT017-27 phage; phage clone #27) scFv: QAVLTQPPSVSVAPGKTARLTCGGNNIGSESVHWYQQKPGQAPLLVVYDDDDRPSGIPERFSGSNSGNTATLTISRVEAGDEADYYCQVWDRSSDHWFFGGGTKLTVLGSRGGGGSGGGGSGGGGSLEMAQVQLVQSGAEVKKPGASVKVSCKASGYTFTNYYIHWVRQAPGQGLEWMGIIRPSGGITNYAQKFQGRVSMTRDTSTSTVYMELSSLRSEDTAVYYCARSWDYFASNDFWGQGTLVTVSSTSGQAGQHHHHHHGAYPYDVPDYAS', 'Median:FITC-A', 145);
